The values you see were collected from ChEMBL document CHEMBL1914350.

Assay: Selectivity index, ratio of IC50 for human HEK293 cells to IC50 for Trypanosoma brucei brucei
Type: toxicity, cell-based
Settings: HEK293 cells versus Trypanosoma brucei brucei, read-out: Ratio IC50
attribute-measured: selectivity ratio
Give the value as a plain number.

stdin: Read the entry COc1c(Br)cc(Br)c(CCNCCCN(C)C)c1Br and write its reported selectivity ratio.
stdout: 18.3

====

Entries annotated with measured pIC50
Test system: Trypanosoma brucei brucei
Experiment: Antitrypanosomal activity against Trypanosoma brucei brucei after 48 hrs by alamar blue assay
Assay type: functional, organism-based
pIC50 here: minus log base 10 of the concentration, concentration in moles per litre.

Some molecules with recorded pIC50:
molecule="COc1c(Br)cc(Br)c(CCNCCCN(C)C)c1Br [CONVOLUTAMINE I]" experimental_value=5.96
molecule="N=C(N)c1ccc(/N=N/Nc2ccc(C(=N)N)cc2)cc1 [DIMINAZENE]" experimental_value=7.15
molecule="COc1c(Br)cc(Br)c(CCN2C=[N+](C)CCC2)c1Br [CONVOLUTAMINE J]" experimental_value=4.86

Read the next record carefully.
stdin: Read the entry N=C(N)c1ccc(OCCCCCOc2ccc(C(=N)N)cc2)cc1 [PENTAMIDINE] and write its reported pIC50.
stdout: 7.82
